# System: HIV-1
# settings: Method B; selectivity index, ratio of CC50 to EC50
readout-kind: pSI (pEC50 − pCC50)
Lab note: write the figure by itself, no unit.

molecule="COc1ccc(Cn2cnc3nc(Nc4ccc(C#N)cc4)nc(Oc4c(C)cc(/C=C/C#N)cc4C)c32)cc1 [Compound 4]" readout_value=−3.4
molecule="CCC(=CC#N)c1cc(C)c(Nc2nc(Nc3ccc(C#N)cc3)nc3c2ncn3CC#N)c(C)c1 [Compound 60]" readout_value=3.6
molecule="COc1cc(/C=C/C#N)cc(OC)c1Oc1nc(Nc2ccc(C#N)cc2)nc2[nH]cnc12 [Compound 35]" readout_value=−3.5
molecule="COc1ccc(Cn2cnc3nc(Nc4ccc(C#N)cc4)nc(Oc4c(C)cc(/C=C/C(=O)N(C)C)cc4C)c32)cc1 [Compound 21]" readout_value=−3.6
molecule="COc1cc(/C=C/C#N)cc(C)c1Nc1nc(Nc2ccc(C#N)cc2)nc2c1ncn2CCO [Compound 50]" readout_value=3.4

Now for a further molecule.
Looking for the measured pSI (pEC50 − pCC50) of COc1cc(OC)c(Nc2nc(Nc3ccc(C#N)cc3)nc3[nH]cnc23)c(OC)c1 [Compound 26] , can you help?
−4.3

###

CC50 by entry:
# protocol-description: Method B: cytotoxicity in mock-infected MT-4 cells engineered with GFP under a constitutional promotor
# Type: cell-based
# settings: human; Method B; mock-infected MT-4 cells with GFP, fluorescence reduced by 50%; read-out: pCC50 (−logCC50) (converted)

Study these solved cases before continuing.
smiles_code=COc1cc(/C=C/C#N)cc(C)c1Nc1nc(Nc2ccc(C#N)cc2)nc2[nH]cnc12 readout_kind=CC50 readout_value="794 nM"
smiles_code=COc1ccc(Cn2cnc3c(Nc4ccc(C#N)cc4)nc(Nc4c(C)cc(C#N)cc4C)nc32)cc1 readout_kind=CC50 readout_value="> 25100 nM"
smiles_code=CCN(C)C(=O)/C=C/c1cc(C)c(Oc2nc(Nc3ccc(C#N)cc3)nc3nc[nH]c23)c(C)c1 readout_kind=CC50 readout_value="5010 nM"

Fill in the blank: the reported CC50 of `COc1ccc(Cn2cnc3c(Nc4c(C)cc(/C=C/C#N)cc4C)nc(Nc4ccc(C#N)cc4)nc32)cc1` is ____.
1260 nM

###

# System: HIV-1
# settings: Method B; selectivity index, ratio of CC50 to EC50
Decision: pSI (pEC50 − pCC50) >= -3 yields True, all other cases yield False.

Some solved entries appear below for comparison.
smiles_code=COc1ccc(Cn2cnc3c(Nc4c(C)cc(/C=C/C#N)cc4Cl)nc(Nc4ccc(C#N)cc4)nc32)cc1 assigned_category=True
smiles_code=COc1cc(/C=C/C#N)cc(C)c1Nc1nc(Nc2ccc(C#N)cc2)nc2c1ncn2CC#N assigned_category=True
smiles_code=COc1ccc(Cn2cnc3c(Nc4c(C)cc(CCC#N)cc4C)nc(Nc4ccc(C#N)cc4)nc32)cc1 assigned_category=False
smiles_code=COc1ccc(Cn2cnc3nc(Nc4ccc(C#N)cc4)nc(Oc4c(C)cc(/C=C/C(N)=O)cc4C)c32)cc1 assigned_category=False

# bool: pSI (pEC50 − pCC50) of `CC(=CC#N)c1cc(C)c(Nc2nc(Nc3ccc(C#N)cc3)nc3[nH]cnc23)c(C)c1` >= -3
True

Same for `Cc1cc(C#N)cc(C)c1Nc1nc(Nc2ccc(C#N)cc2)nc2c1ncn2C`
True

###

# Test system: HIV-1
# settings: Method B; selectivity index, ratio of CC50 to EC50
Parameter pSI (pEC50 − pCC50): see the listing below.
Could you keep your reply to the number by itself?

smiles_code=Cc1cc(/C=C/C#N)cc(C)c1Oc1nc(Nc2ccc(C#N)cc2)nc2[nH]cnc12 readout_value=−3.5
smiles_code=Cc1cc(CCC#N)cc(C)c1Nc1nc(Nc2ccc(C#N)cc2)nc2[nH]cnc12 readout_value=−3.5
smiles_code=COc1cc(/C=C/C#N)cc(C)c1Nc1nc(Nc2ccc(C#N)cc2)nc2c1ncn2C(C)C readout_value=3.5

What does the data say about its pSI (pEC50 − pCC50)? Entry: `COc1cc(/C=C/C#N)cc(C)c1Nc1nc(Nc2ccc(C#N)cc2)nc2[nH]cnc12`
−2.9

What do you get for `Cc1cc(/C=C/C#N)cc(C)c1Nc1nc(Nc2ccc(C#N)cc2)nc2[nH]cnc12` ?
−3.7

###

# Test system: mock-infected MT-4 cells
# protocol-description: Method B: cytotoxicity in mock-infected MT-4 cells engineered with GFP under a constitutional promotor
# Assay type: cell-based
readout-kind: pCC50 (−logCC50)
Answer with a bare number; do not write a unit.

Example compounds with recorded pCC50 (−logCC50):
smiles_code=COc1cc(/C=C/C#N)cc(C)c1Nc1nc(Nc2ccc(C#N)cc2)nc2c1ncn2C(C)C readout_value=5.5
smiles_code=COc1ccc(Cn2cnc3nc(Nc4ccc(C#N)cc4)nc(Oc4c(C)cc(/C=C/C(=O)N(C)C)cc4C)c32)cc1 readout_value=4.8
smiles_code=COc1ccc(Cn2cnc3nc(Nc4ccc(C#N)cc4)nc(Oc4c(C)cc(/C=C/C(N)=O)cc4C)c32)cc1 readout_value=5.2
smiles_code=COc1cc(/C=C/C#N)cc(OC)c1Oc1nc(Nc2ccc(C#N)cc2)nc2[nH]cnc12 readout_value=4.9

Reported pCC50 (−logCC50) for `CCC(=CC#N)c1cc(C)c(Nc2nc(Nc3ccc(C#N)cc3)nc3[nH]cnc23)c(C)c1` : what is it?
5.1

Also `CCC(=CC#N)c1cc(C)c(Nc2nc(Nc3ccc(C#N)cc3)nc3c2ncn3CC#N)c(C)c1` ?
5.0

# repeat for `C/C(C#N)=C(/C)c1cc(C)c(Nc2nc(Nc3ccc(C#N)cc3)nc3[nH]cnc23)c(C)c1`
5.0

What do you get for `Cc1cc(/C=C/C#N)cc(C)c1Oc1nc(Nc2ccc(C#N)cc2)nc2[nH]cnc12` ?
5.0

Another compound to look at: `COc1cc(OC)c(Nc2nc(Nc3ccc(C#N)cc3)nc3[nH]cnc23)c(OC)c1`
5.0

Next up: `CCOc1cc(C)c(Nc2nc(Nc3ccc(C#N)cc3)nc3[nH]cnc23)c(C)c1`
4.8

What about this compound? `COc1ccc(Cn2cnc3c(Nc4c(C)cc(/C=C/C#N)cc4Cl)nc(Nc4ccc(C#N)cc4)nc32)cc1`
5.5

Would you kindly repeat that for `COc1ccc(Cn2cnc3c(Nc4c(C)cc(CCC#N)cc4C)nc(Nc4ccc(C#N)cc4)nc32)cc1` ?
5.2

###

# protocol-description: Method B: cytotoxicity in mock-infected MT-4 cells engineered with GFP under a constitutional promotor
# Type: cell-based
# settings: human; Method B; mock-infected MT-4 cells with GFP, fluorescence reduced by 50%; read-out: pCC50 (−logCC50) (converted)
CC50: recorded values

Below are worked cases with known answers.
compound="C/C(=C\\C#N)c1cc(C)c(Nc2nc(Nc3ccc(C#N)cc3)nc3c2ncn3C)c(C)c1 [Compound 57]" readout_value="> 25.1 µM"
compound="COc1cc(/C=C/C#N)cc(C)c1Nc1nc(Nc2ccc(C#N)cc2)nc2c1ncn2CC#N [Compound 52]" readout_value="2 µM"
compound="COc1ccc(Cn2cnc3nc(Nc4ccc(C#N)cc4)nc(Oc4c(C)cc(/C=C/C#N)cc4C)c32)cc1 [Compound 4]" readout_value="10 µM"
compound="CCn1cnc2c(Nc3c(C)cc(/C=C/C#N)cc3OC)nc(Nc3ccc(C#N)cc3)nc21 [Compound 48]" readout_value="> 25.1 µM"
compound="CCN(C)C(=O)/C=C/c1cc(C)c(Oc2nc(Nc3ccc(C#N)cc3)nc3ncn(Cc4ccc(OC)cc4)c23)c(C)c1 [Compound 1]" readout_value="> 25.1 µM"
compound="COc1ccc(Cn2cnc3c(Nc4ccc(C#N)cc4)nc(Nc4c(C)cc(/C=C/C#N)cc4C)nc32)cc1 [Compound 73]" readout_value="> 25.1 µM"

With those in mind, consider the next compound.
Give the measured CC50 of COc1ccc(Cn2cnc3c(Nc4c(C)cc(/C=C/C#N)cc4OC)nc(Nc4ccc(C#N)cc4)nc32)cc1 [Compound 2] .
5.01 µM

###

# System: mock-infected MT-4 cells
# protocol-description: Method B: cytotoxicity in mock-infected MT-4 cells engineered with GFP under a constitutional promotor
# Type: cell-based
readout-kind: pCC50 (−logCC50)
When you answer, write just the number.

smiles_code=Cc1cc(C#N)cc(C)c1Nc1nc(Nc2ccc(C#N)cc2)nc2[nH]cnc12 readout_kind="pCC50 (−logCC50)" readout_value=4.9
smiles_code=Cc1cc(/C=C/C#N)cc(Cl)c1Nc1nc(Nc2ccc(C#N)cc2)nc2[nH]cnc12 readout_kind="pCC50 (−logCC50)" readout_value=5.5
smiles_code=Cc1cc(CCC#N)cc(C)c1Nc1nc(Nc2ccc(C#N)cc2)nc2[nH]cnc12 readout_kind="pCC50 (−logCC50)" readout_value=4.8
smiles_code=Cc1cc(/C=C/C#N)cc(C)c1Nc1nc(Nc2ccc(C#N)cc2)nc2[nH]cnc12 readout_kind="pCC50 (−logCC50)" readout_value=4.8

With those in mind, consider the next compound.
I'd like to know its pCC50 (−logCC50). The compound in question is `COc1cc(/C=C/C#N)cc(C)c1Nc1nc(Nc2ccc(C#N)cc2)nc2c1ncn2CCO`
5.8
